# ASSAY METHOD TEXT: MTT cytotoxicity, MEF normal mouse fibroblast
# Type: cell-based
# TEST CONTEXT: MEF normal mouse fibroblasts; MEF, Normal mouse fibroblast; 72 hrs, MTT; read-out: LC50
# Procedure: [Worded in the source for another organism; this organism is reported under the same test.] The cytotoxicity of ZTP and ZTQ was analyzed by using human tumor cell lines. Human tumor cell lines were purchased from ATCC and NCI, and cultured in DMEM medium containing 10% FBS at 37° C. in 5% CO2 in an incubator. The cells grown to confluence were used for cytotoxicity analysis. The cells were digested with trypsin, washed with the culture medium, and then counted. 33 tumor cell lines were cultured. […] The drug-treated cells and control cells were analyzed by MTT.
Give CC50 at 72 h for every item shown.

STRUCTURE NOTATION	CC50 at 72 h
CNC(=O)c1cc(Sc2ccc(NC(=S)Nc3ccc(Cl)c(C(F)(F)F)c3)cc2)ccn1	> 30 µM

Please turn your attention to the following entry.
// field: CC50 at 72 h; key: CNC(=O)c1cc(Oc2ccc(NC(=S)Nc3ccc(Cl)c(C(F)(F)F)c3)cc2)ccn1 ; value = > 30 µM

* * *

Give pIC50 for every item shown.
# System: Raf protein kinase
# ASSAY METHOD TEXT: Inhibition of Raf protein kinase activity (phosphorylated MEK, western blotting) in MDA-MB-321 cells
# Format: cell-based, human
# TEST CONTEXT: 1 hour treatment, phosphorylated MEK level, read-out: median inhibitory concentration (IC50) for inhibiting the activity of Raf protein kinase
Give bare numbers, as −log10 of the molar value.

STRUCTURE NOTATION	pIC50
CNC(=O)c1cc(Oc2ccc(NC(=S)Nc3ccc(Cl)c(C(F)(F)F)c3)cc2)ccn1	7.35

Please turn your attention to the following entry.
For the compound CNC(=O)c1cc(Sc2ccc(NC(=S)Nc3ccc(Cl)c(C(F)(F)F)c3)cc2)ccn1 , the measured pIC50 on Raf protein kinase was 7.70

* * *

# ASSAY METHOD TEXT: Pharmacokinetic study in mice
# Type: in vivo
# TEST CONTEXT: both sexes, mouse, po; BALB/c mice, single dose of 100 mg/kg orally by gavage, plasma, Mean +/− SD
Give Tmax for every item shown.

MOLECULE	Tmax
CNC(=O)c1cc(Sc2ccc(NC(=S)Nc3ccc(Cl)c(C(F)(F)F)c3)cc2)ccn1 [ZTQ]	6.6 h

Please turn your attention to the following entry.
// field: Tmax; key: CNC(=O)c1cc(Oc2ccc(NC(=S)Nc3ccc(Cl)c(C(F)(F)F)c3)cc2)ccn1 [ZTP] ; value = 6.4 h

Values were extracted from patent US20130225641A1.
